Source of measurements: patent US11202743B2

assay-system: recombinant human FAAH enzyme (Homo sapiens (Human))
Sequence (O00519 whole entry): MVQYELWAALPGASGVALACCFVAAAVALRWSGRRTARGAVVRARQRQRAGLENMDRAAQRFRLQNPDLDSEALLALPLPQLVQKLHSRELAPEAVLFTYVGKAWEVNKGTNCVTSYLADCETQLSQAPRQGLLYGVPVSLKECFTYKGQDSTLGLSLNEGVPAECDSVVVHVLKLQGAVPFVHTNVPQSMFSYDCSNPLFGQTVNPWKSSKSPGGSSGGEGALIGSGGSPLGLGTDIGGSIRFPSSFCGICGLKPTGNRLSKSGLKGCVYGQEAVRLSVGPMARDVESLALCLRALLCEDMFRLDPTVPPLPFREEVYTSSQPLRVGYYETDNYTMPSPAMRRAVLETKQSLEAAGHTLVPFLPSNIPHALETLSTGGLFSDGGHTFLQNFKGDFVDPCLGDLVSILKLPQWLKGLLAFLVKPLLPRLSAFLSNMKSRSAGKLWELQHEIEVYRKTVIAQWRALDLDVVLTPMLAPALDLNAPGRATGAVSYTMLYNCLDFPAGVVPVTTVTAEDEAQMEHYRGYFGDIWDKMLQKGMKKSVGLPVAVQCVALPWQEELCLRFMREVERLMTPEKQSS
procedure-text: FAAH inhibition assay (Cayman Chemicals kit, AMC-arachidonoyl amide hydrolysis, fluorescence)
Attribute: IC50
Answer with a number only, understood to be in µM.

Some solved cases for reference:
- compound: "CCCCCC/C=C/C=C\\CCCCCCCC(=O)NCC(=O)O"
  IC50 [µM]: 3.5
- compound: "CCCCCCC(O)C/C=C\\CCCCCCCC(=O)NC(C)C(=O)O (centres unmarked)"
  IC50 [µM]: 42
- compound: "CCCCCCC(O)CCCCCCCCCCC(=O)NC(C)C(=O)O (centres unmarked)"
  IC50 [µM]: 40
- compound: "CCCCC/C=C\\C=C\\CCCCCCCCC(=O)NCC(Cc1c[nH]cn1)C(=O)O (centres unmarked)"
  IC50 [µM]: 13

Now for the compound whose IC50 we want.
Give recorded IC50. CCCCCC/C=C/C=C/CCCCCCCC(=O)NC(CC(=O)O)Cc1c[nH]cn1 (centres unmarked)
13
